- experiment-summary: yeast display, Sf9 membrane polyspecificity reagent, FACS + sequencing; frameworks hold sequencing errors
observed-property: polyreactivity (PSR sort gate)

Previously resolved entries follow.
{"columns": ["residue-codes", "observed-property", "result"],
 "data": [
  ["QVQLVESGGGLVQAGGSLRLSCAASGRIFYYNGMGWYRQAPGKERELVASIPRTSGRTFYADSVKGRFTISRDKAKNTVYLQMNSLKPEDTAVYYCAAVGSRYVLGEYGYWGQGTQVTVSS", "polyreactivity (PSR sort gate)", "high polyreactivity"],
  ["QVQLVESGGGLVQAGGSLRLSCAASGRIFGSYVMGWYRQAPGKERELVAAISIGGITKYADSVKGRFTISRDNAKNTVYLQMNSLKPEDTAVYYCAARLVRRYDYDYWGQGTQVTVSS", "polyreactivity (PSR sort gate)", "high polyreactivity"],
  ["QVQLVESGGGLVQAGGSLRLTCAASGRTLGGYTMGWSRQAPGKERELVAAITTGGSTNYADSVKGRFTISRDNAKNTVYLQMNSLKPEDTAVYYCATELVFDKRYWYDYWGQGTQVTVSS", "polyreactivity (PSR sort gate)", "low polyreactivity"],
  ["QVQLVESGGGLVKAGGSLRLSCAASGRIFVFNAMGWYRQAPGKERELVAAITSAGSTYYADSVKGRFTISRDNAKNTVYLQMNSLIPEDTAVYYCAAGSRRYRDDYWGQGTQVNVSS", "polyreactivity (PSR sort gate)", "low polyreactivity"],
  ["QVQLVESGGGLVQAGGSLRLICAASGIIFRSYAMGWYRQAPGKERELVAGISLSGGSTYYADSVKGRFTISRDNAKNTVYLQMNSLKPEDTAVYYCAARRRYKSGYWGQGTQVTVSS", "polyreactivity (PSR sort gate)", "high polyreactivity"],
  ["QVQLVESGGGLVQAGGSLRLSCAASGIIFGYYAMGWYRQATGKERELVAAINGRTGSTYYADSVKGRFTISRDNAKNTVYLQMNSLKPEDTAVYYCTAQSYKFHGDYWGQGTQVTVSS", "polyreactivity (PSR sort gate)", "high polyreactivity"],
  ["QVQLVESGGGLVQAGGSLRLSCAASGRTFYRNAMGWYRQAPGKERELVAAISSTGSTYSADSVKGRFTISRDNAKNTVYLQMNSLKPEDTAVYYCARGVHGIFGYWGQGTQVTVSS", "polyreactivity (PSR sort gate)", "low polyreactivity"],
  ["QVQLVESGGGLVQAGGSLRLSCAASGFTFYRNAMGWYRQAPGKERELVAAITLSGTSTYYADSVMGRFTISRDNAKNTVYLQMISLIPEDTAVYYWNTVGYRGPSNSRFYYWGQGTQVTLSS", "polyreactivity (PSR sort gate)", "high polyreactivity"]
]}

Per the records, this sequence ( QVQLVESGGGLFHAGGSLRLSCAASGSTFGGNDMGWSIQAPGKERELVASISDGGRTNYADSVKGRFTISRDNAKNTVYLQMNSLKPEDTAVYYCAADYAPVAFDYWGQGTQVTVSS ) has polyreactivity (PSR sort gate) equal to low polyreactivity
